target: DAPK1 (human) (UniProt P53355); assay: radiometric filter-binding kinase assay; settings: compound 1.0 µM
Sequence (P53355 whole entry, looked up): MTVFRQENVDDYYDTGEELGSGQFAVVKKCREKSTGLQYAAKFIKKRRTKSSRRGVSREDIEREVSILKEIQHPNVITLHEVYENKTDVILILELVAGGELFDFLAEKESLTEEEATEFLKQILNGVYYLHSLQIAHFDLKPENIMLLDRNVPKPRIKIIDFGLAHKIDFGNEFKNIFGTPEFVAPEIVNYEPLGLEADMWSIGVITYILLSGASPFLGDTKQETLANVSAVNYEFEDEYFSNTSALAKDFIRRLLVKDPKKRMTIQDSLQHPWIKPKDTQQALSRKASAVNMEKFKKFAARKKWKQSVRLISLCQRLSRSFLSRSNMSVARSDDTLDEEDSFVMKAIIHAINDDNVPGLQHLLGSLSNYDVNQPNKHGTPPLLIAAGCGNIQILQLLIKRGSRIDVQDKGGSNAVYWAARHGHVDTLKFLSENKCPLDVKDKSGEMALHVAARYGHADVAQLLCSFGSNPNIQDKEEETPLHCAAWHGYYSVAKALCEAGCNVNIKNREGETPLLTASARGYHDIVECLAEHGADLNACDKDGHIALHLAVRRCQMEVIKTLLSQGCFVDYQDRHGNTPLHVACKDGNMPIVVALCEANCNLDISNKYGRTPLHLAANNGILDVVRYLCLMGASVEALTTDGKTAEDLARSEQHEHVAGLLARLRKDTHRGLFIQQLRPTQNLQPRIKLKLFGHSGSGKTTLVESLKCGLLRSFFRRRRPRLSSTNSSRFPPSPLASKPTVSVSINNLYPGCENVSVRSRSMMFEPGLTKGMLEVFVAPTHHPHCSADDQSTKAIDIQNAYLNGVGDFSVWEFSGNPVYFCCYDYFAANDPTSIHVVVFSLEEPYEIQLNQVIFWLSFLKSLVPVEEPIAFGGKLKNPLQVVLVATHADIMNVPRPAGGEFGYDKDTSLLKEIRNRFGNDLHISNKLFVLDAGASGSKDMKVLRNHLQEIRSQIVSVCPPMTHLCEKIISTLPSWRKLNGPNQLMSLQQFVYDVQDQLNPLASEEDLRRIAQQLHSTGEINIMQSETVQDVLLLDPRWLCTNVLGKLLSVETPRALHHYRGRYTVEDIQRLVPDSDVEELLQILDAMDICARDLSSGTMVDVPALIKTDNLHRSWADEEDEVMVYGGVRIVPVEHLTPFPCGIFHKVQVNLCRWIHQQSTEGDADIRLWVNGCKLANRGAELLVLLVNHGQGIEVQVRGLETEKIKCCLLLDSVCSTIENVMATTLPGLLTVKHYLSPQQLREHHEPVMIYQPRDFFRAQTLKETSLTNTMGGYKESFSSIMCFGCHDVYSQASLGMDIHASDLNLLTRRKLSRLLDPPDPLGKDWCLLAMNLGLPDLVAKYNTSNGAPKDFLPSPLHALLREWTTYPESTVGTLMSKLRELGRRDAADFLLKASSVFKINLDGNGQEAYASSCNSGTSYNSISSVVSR
Could you label it YES if measured residual activity is 80% or higher, and NO otherwise?

Please review the following examples before continuing.
COMPOUND	CATEGORY
Cc1ccc(Sc2cnc(Nc3cccc(Br)n3)s2)cc1C(=O)N1CCN(C(=O)CN)CC1	YES
Nc1cccc2c1CN(C1CCC(=O)NC1=O)C2=O (stereo unspecified)	YES
N#Cc1c(C2CCNCC2)cc(-c2c(O)cccc2OCC2CC2)nc1N	NO

For this compound, is measured residual activity 80% or higher? COc1cc(O)c2c(c1)/C=C/C[C@H](O)[C@H](O)C(=O)/C=C\C[C@H](C)OC2=O
YES

Then O=C(Nc1ccccc1-c1cn2c(CN3CCNCC3)csc2n1)c1cnc2ccccc2n1 ?
NO

Ok, now CNC(=O)C1[C@H]2O[C@@](C)([C@@H]1N)n1c3ccccc3c3c4c(c5c6ccccc6n2c5c31)C(=O)NC4 (stereo partly specified)
NO

Queued: O=C(NOC[C@H](O)CO)c1ccc(F)c(F)c1Nc1ccc(I)cc1Cl
YES

Consider next the compound FC(F)(F)c1ccc(-c2ccc(Oc3cncc4sc(-c5nn[nH]n5)cc34)cc2)cc1 in the same way.
NO

###

tested on: RPS6KB1 (human), P23443 [T412E]; experiment: radiometric filter-binding kinase assay; details: compound 0.1 µM
Sequence (P23443 whole entry T412E, looked up): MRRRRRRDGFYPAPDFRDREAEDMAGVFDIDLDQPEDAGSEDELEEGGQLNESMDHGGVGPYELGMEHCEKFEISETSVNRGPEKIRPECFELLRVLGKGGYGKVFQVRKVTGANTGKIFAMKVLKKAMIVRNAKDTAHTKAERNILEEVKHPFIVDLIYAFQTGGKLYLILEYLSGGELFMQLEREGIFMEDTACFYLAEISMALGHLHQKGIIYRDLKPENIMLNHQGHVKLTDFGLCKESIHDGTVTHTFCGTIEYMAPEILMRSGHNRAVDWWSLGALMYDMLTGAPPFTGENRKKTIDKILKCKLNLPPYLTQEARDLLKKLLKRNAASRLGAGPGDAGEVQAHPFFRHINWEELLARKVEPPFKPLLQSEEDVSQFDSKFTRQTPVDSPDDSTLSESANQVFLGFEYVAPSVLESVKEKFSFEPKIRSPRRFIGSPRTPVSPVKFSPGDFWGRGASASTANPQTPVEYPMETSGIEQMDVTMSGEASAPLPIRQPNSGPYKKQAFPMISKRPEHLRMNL
# residual activity listing for each entry below
Numbers only; they are read as %.

COMPOUND	EXPERIMENTAL ENDPOINT	ENDPOINT VALUE
NC(=O)c1cc(-c2ccnc(NC3CCCCC3)c2)nc(N2CCNCC2)c1	residual activity	92
CC1=C(CO)C(=O)O[C@@H]([C@@H](C)[C@H]2CC[C@H]3[C@@H]4C[C@H]5O[C@]56[C@@H](O)C=CC(=O)[C@]6(C)C4CC[C@]23C)C1 (some centres undefined)	residual activity	99
CN(C)C/C=C/C(=O)Nc1cccc(C(=O)Nc2ccc(Nc3nccc(-c4cccnc4)n3)cc2)c1	residual activity	88
Cn1c(=O)c2c(ncn2C)n(C)c1=O	residual activity	100
CCc1cncnc1N1CCN(Cc2nc3cc(C(F)(F)F)ccc3[nH]2)CC1	residual activity	39
C/C(=C1/C(=O)Nc2ccc(NC(N)=O)cc21)c1ccc[nH]1	residual activity	83
C=CC(=O)N1CCC[C@@H](n2nc(-c3ccc(Oc4ccccc4)cc3)c3c(N)ncnc32)C1	residual activity	93
O=C(Nc1nc2cc(C(F)(F)F)cc(NC3CC3)n2n1)c1cccnc1	residual activity	104
Cc1cccc(-c2nn(C(=S)Nc3ccccc3)cc2-c2ccnc3ccccc23)n1	residual activity	108
Cc1cc(NC(=O)c2cccc(NC(=O)/C=C/CN(C)C)c2)ccc1Nc1nccc(-c2cccnc2)n1	residual activity	98

Please look up its residual activity: CN1CCN(CCOc2cc(OC3CCOCC3)c3c(Nc4c(Cl)ccc5c4OCO5)ncnc3c2)CC1
93

Would you mind doing COc1ccc(N(C(=O)Nc2c(C)cccc2C)c2cc(Nc3ccc(N4CCN(C)CC4)cc3)ncn2)c(OC)c1 as well?
99

###

biological target: CAMKK2 (human); assay: radiometric filter-binding kinase assay; details: compound 10.0 µM
Output true (1) for residual activity not less than 80%; output false (0) otherwise.

COMPOUND	CATEGORY
Oc1ccc(/C=C/c2cc(O)cc(O)c2)cc1	false (0)
NCC(=O)Nc1ccc(-n2nc(C(F)(F)F)cc2-c2ccc3c(ccc4ccccc43)c2)cc1	true (1)
COc1cc(C(=O)N2CCOCC2)c(F)cc1Nc1ncc(C(F)(F)F)c(NC2CC2)n1	false (0)

Can NC(=O)c1c(NC(=O)C2CC2)sc2c1CCCC2 be said to have residual activity at or above 80%?
false (0)

Entry NC(=O)c1cc2c(-c3cccc(-c4ccccc4)c3)cnc(N)c2s1 please
false (0)

// next record O=C(NOC[C@H](O)CO)c1ccc(F)c(F)c1Nc1ccc(I)cc1Cl
true (1)

Same read-out for COc1cc2ncn(-c3cc(OCc4ccccc4S(C)(=O)=O)c(C#N)s3)c2cc1OC ?
true (1)
